biological target: EGFR L858R/C797S (Homo sapiens, UniProt P00533, C797S/L858R); experiment: Biochemical EGFR kinase inhibition assay (Lance Ultra TR-FRET), double mutant L858R/C797S; conditions: ATP at Km; read-out: IC50 L858R/C797S (nM), Km ATP
Sequence (P00533 25-1210 C797S/L858R): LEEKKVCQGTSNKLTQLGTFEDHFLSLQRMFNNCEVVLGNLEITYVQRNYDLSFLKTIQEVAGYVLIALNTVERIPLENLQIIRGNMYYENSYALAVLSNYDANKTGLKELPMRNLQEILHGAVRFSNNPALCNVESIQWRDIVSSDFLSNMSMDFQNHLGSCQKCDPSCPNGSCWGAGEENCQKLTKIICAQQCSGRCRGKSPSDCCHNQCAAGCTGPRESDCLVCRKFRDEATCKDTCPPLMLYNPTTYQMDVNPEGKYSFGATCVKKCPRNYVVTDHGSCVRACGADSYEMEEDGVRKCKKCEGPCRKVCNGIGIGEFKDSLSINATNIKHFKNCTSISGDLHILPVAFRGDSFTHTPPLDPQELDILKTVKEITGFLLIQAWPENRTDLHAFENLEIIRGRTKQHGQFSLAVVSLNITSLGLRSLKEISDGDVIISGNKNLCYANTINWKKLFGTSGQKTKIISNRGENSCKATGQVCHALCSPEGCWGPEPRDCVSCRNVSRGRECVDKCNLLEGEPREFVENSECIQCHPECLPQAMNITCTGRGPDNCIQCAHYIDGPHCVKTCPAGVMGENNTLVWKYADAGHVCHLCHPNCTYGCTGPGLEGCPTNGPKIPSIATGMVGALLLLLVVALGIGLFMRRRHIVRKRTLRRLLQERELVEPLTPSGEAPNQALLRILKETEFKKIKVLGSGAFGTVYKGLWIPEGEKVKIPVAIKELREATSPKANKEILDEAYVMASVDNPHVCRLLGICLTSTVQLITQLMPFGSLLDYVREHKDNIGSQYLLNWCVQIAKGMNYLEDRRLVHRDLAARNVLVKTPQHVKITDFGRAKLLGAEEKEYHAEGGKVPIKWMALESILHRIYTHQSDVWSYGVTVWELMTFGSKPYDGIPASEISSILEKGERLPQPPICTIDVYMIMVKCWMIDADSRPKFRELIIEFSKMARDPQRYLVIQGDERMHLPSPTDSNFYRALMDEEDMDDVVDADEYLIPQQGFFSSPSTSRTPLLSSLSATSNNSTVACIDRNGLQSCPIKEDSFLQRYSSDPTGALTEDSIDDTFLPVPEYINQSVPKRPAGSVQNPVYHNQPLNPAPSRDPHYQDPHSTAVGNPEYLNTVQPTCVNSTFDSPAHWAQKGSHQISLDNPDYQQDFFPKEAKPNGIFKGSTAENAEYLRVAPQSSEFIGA
Counter-ions that a name gives are not always drawn.
Rule: IC50 below 20 nM gives Criterion met, anything at or above gives Criterion not met.

QUERY: Does the reported IC50 of the following molecule sit strictly below 20 nM? CC1(CO)CCN(c2cc(Nc3ccnc(-c4cnn(S(=O)(=O)C5CC5)c4)n3)ncc2C#Cc2cnc(C(F)(F)F)s2)CC1
RESULT: Criterion not met

QUERY: Is IC50 strictly under 20 nM for the entry CC1(CO)CCN(c2cc(Nc3ccnc(-c4cnn(S(=O)(=O)C5CC5)c4)n3)ncc2C#Cc2csc(CN3CCOCC3)n2)CC1 ?
RESULT: Criterion met

QUERY: Threshold test, IC50 < 20 nM: CC1(CO)CCN(c2cc(Nc3ccnc(-c4cnn(S(=O)(=O)C5CC5)c4)n3)ncc2C#C[Si](C)(C)C)CC1
RESULT: Criterion not met

QUERY: Please state whether IC50 is below 20 nM for CN1CCC2(CCN(c3cc(Nc4ccnc(-c5cnn(S(=O)(=O)C6CC6)c5)n4)ncc3C#Cc3cnn(C)c3)CC2)C1 [Example 297, formate]
RESULT: Criterion met

QUERY: Please let me know if CC1(CO)CCN(c2cc(Nc3ccnc(-c4cnn(S(=O)(=O)C5CC5)c4)n3)ncc2C#Cc2ccncc2)CC1 shows IC50 below 20 nM.
RESULT: Criterion met

QUERY: I'd appreciate it if you could check whether Cn1cnc(C#Cc2cnc(Nc3ccnc(-c4cnn(S(=O)(=O)C5CC5)c4)n3)cc2N[C@H]2CC[C@@H](O)CC2)n1 has IC50 smaller than 20 nM.
RESULT: Criterion not met

QUERY: Criterion: IC50 strictly below 20 nM. Is it met by C#Cc1cnc(Nc2ccnc(-c3cnn(S(=O)(=O)C4CC4)c3)n2)cc1N1CCC(C)(CO)CC1 ?
RESULT: Criterion met

###

target: EGFR L858R/T790M/C797S (Homo sapiens, UniProt P00533, C797S/L858R/T790M); experiment: Biochemical EGFR kinase inhibition assay (Lance Ultra TR-FRET), triple mutant L858R/T790M/C797S; conditions: ATP at Km; read-out: IC50 L858R/T790M/C797S (nM), Km ATP
Sequence (P00533 25-1210 T790M/C797S/L858R): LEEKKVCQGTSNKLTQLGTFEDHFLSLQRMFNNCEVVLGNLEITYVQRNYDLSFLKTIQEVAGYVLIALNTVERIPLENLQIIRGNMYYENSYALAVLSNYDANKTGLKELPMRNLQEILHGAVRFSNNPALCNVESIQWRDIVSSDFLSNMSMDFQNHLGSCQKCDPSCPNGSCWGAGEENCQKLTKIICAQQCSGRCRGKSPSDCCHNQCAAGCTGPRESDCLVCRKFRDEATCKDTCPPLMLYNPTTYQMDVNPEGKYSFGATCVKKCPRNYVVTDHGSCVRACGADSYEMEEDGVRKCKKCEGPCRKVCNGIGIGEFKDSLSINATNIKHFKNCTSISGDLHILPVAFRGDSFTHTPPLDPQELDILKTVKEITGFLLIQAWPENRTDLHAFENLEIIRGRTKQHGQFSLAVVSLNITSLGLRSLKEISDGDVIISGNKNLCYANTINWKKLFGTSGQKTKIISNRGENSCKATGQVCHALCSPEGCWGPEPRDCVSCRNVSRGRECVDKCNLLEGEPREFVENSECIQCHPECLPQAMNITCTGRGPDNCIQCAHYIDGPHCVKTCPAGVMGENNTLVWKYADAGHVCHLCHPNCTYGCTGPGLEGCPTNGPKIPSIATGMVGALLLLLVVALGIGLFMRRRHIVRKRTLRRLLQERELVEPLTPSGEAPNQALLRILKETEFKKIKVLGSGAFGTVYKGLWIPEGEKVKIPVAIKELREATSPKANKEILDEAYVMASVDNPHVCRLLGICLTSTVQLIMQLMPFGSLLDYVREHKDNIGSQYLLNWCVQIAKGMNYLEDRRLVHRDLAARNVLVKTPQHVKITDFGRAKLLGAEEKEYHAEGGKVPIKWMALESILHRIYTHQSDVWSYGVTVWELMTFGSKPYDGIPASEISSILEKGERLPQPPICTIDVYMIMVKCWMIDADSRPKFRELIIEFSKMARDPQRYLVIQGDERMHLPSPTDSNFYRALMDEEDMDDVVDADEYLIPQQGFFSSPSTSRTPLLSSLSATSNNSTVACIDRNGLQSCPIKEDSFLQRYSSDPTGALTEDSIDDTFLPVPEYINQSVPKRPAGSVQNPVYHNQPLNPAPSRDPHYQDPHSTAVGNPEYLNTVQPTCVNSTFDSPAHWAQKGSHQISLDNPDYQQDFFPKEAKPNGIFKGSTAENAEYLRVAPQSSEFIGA
parameter: IC50 (nM)
Give just the number in nM; leave the unit off.

Query Cc1cnc(C#Cc2cnc(Nc3ccnc(-c4cnn(S(=O)(=O)C5CC5)c4)n3)cc2N[C@@H]2CCC[C@H](O)C2)cn1 yields IC50 of 0.6

CC1(CO)CCN(c2cc(Nc3ccnc(-c4cnn(S(=O)(=O)C5CC5)c4)n3)ncc2C#Cc2cnn3c2CN(CC(F)F)CC3)CC1 has a reported IC50 of 1.1

IC50 reading for O=S(=O)(C1CC1)n1cc(-c2nccc(Nc3cc(N[C@H]4CC[C@@H](O)CC4)c(C#Cc4ccc(CN5CCOCC5)cc4)cn3)n2)cn1 : 1.7

The reported value for CN(C)CC1CCN(c2cc(Nc3ccnc(-c4cnn(S(=O)(=O)C5CC5)c4)n3)ncc2C#Cc2cnn(C3CC3)c2)CC1 in terms of IC50 is 0.4

The recorded IC50 for entry CN1CCC(C#Cc2cnc(Nc3ccnc(-c4cnn(S(=O)(=O)C5CC5)c4)n3)cc2N2CCC(C)(CO)CC2)CC1 equals 0.04

Briefly, IC50 measured for Nc1cccc(C#Cc2cnc(Nc3ccnc(-c4cnn(S(=O)(=O)C5CC5)c4)n3)cc2N[C@@H]2CCC[C@H](O)C2)c1 : 2.6

###

For each record, write down the corresponding IC50.
target: EGFR L858R/T790M/C797S (Homo sapiens, UniProt P00533, C797S/L858R/T790M); experiment: Biochemical EGFR kinase inhibition assay (Lance Ultra TR-FRET), triple mutant L858R/T790M/C797S; details: Km ATP; read-out: IC50 L858R/T790M/C797S (nM), Km ATP
Please reply with the bare figure in nM and do not write the unit itself.

Observed IC50 on EGFR L858R/T790M/C797S (Homo sapiens, UniProt P00533, C797S/L858R/T790M), entry CC1(O)CCN(c2cc(Nc3ccnc(-c4cnn(S(=O)(=O)C5CC5)c4)n3)ncc2C#Cc2ncc(CN3CCOCC3)cn2)CC1 [Example 364] , equals 0.1

Record O=S(=O)(C1CC1)n1cc(-c2nccc(Nc3cc(N[C@H]4CC[C@@H](NCCF)CC4)c(C#Cc4cnn(CC(F)(F)F)c4)cn3)n2)cn1 [Example 345] ; system EGFR L858R/T790M/C797S (Homo sapiens, UniProt P00533, C797S/L858R/T790M); IC50 = 1.3

Hey, EGFR L858R/T790M/C797S (Homo sapiens, UniProt P00533, C797S/L858R/T790M) data for CC1(CO)CCN(c2cc(Nc3ccnc(-c4cnn(S(=O)(=O)C5CC5)c4)n3)ncc2C#CC2CCN(S(=O)(=O)C3CC3)C2)CC1 (stereo not drawn) [Example 395] : IC50 came out at 0.3

###

target: EGFR L858R/T790M/C797S (Homo sapiens, UniProt P00533, C797S/L858R/T790M); experiment: Biochemical EGFR kinase inhibition assay (Lance Ultra TR-FRET), triple mutant L858R/T790M/C797S; settings: ATP at Km; read-out: IC50 L858R/T790M/C797S (nM), Km ATP
Give IC50 for every item shown.
Value expressed in nM; do not type the unit.

Record CC1(CO)CCN(c2cc(Nc3ccnc(-c4cnn(S(=O)(=O)C5CC5)c4)n3)ncc2C#Cc2cccc(C(=O)N3CCOCC3)n2)CC1 , field IC50: 0.3

Recorded result, CC1(CO)CCN(c2cc(Nc3ccnc(-c4cnn(S(=O)(=O)C5CC5)c4)n3)ncc2C#CC2CC(C(C)(C)O)C2)CC1 (stereo not drawn) , IC50: 0.4

Field IC50 (entry C[C@]1(O)CC[C@@H](Nc2cc(Nc3ccnc(-c4cnn(S(=O)(=O)C5CC5)c4)n3)ncc2C#CCN2CCOCC2)CC1 ) reads 0.9

The compound CC1(CO)CCN(c2cc(Nc3ccnc(-c4cnn(S(=O)(=O)C5CC5)c4)n3)ncc2C#CC2CCOCC2)CC1 showed IC50 equal to 0.2

Just so you know, measured IC50 for O=S(=O)(C1CC1)n1cc(-c2nccc(Nc3cc(N[C@H]4CC[C@@H](O)CC4)c(C#Cc4ccc(NCCN5CCOCC5)cc4)cn3)n2)cn1 came out at 4.8

Lab note: measured IC50 of CNCCC1CCN(c2cc(Nc3ccnc(-c4cnn(S(=O)(=O)C5CC5)c4)n3)ncc2C#Cc2cnn(C)c2)CC1 was 0.04

###

target: EGFR Del19/T790M/C797S (Homo sapiens, UniProt P00533, C797S/DEL746-750/T790M); experiment: Biochemical EGFR kinase inhibition assay (Lance Ultra TR-FRET), triple mutant del19/T790M/C797S; settings: IC50 Del19/T790M/C797S (nM), 100 μM ATP
Sequence (P00533 with tags, fused parts or gaps DEL746-750/T790M/C797S): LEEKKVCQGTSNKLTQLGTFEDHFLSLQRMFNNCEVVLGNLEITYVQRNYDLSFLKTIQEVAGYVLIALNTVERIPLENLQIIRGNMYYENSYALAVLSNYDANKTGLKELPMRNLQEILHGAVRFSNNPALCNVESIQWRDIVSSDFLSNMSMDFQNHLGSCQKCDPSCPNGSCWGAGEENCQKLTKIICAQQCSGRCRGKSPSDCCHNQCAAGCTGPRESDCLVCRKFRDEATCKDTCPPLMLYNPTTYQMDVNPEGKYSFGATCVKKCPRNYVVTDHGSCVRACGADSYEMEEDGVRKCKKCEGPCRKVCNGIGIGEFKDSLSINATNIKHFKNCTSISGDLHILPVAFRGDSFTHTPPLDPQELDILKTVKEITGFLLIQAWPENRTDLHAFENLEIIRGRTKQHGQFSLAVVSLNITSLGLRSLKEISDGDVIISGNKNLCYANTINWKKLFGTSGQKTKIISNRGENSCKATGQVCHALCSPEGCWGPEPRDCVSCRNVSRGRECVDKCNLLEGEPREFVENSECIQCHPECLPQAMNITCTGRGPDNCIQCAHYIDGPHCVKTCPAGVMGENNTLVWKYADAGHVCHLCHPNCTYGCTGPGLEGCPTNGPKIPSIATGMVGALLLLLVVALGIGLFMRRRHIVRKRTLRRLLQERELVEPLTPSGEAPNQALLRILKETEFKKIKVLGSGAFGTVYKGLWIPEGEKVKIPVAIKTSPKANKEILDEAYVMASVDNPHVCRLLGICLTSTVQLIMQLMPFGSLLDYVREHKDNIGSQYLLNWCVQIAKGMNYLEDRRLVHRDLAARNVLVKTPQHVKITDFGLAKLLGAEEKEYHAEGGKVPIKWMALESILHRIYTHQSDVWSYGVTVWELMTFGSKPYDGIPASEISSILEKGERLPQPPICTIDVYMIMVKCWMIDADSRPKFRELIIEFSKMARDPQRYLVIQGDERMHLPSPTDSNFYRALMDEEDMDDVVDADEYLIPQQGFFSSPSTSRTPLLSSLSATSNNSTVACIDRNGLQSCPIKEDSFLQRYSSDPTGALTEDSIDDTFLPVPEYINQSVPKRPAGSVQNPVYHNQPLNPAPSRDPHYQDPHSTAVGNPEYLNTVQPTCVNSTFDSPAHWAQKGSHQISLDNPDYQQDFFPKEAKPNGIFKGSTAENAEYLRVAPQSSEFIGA
I'd appreciate it if you could supply log10(IC50) values for the items below.
Please interpret these as log10 of IC50 where IC50 is in nM.

Entry CC1(CO)CCN(c2cc(Nc3ccnc(-c4cnn(S(=O)(=O)C5CC5)c4)n3)ncc2C#CC2COC2)CC1 [Example 352] under EGFR Del19/T790M/C797S (Homo sapiens, UniProt P00533, C797S/DEL746-750/T790M) had log10(IC50) of -0.52

For the molecule COC1(O)CCN(c2cc(Nc3ccnc(-c4cnn(S(=O)(=O)C5CC5)c4)n3)ncc2C#Cc2ccc(CN3CCN(C)CC3)cc2)CC1 [Example 369] , the measured log10(IC50) on EGFR Del19/T790M/C797S (Homo sapiens, UniProt P00533, C797S/DEL746-750/T790M) was -0.40

log10(IC50) of CN(C)CC1CCN(c2cc(Nc3ccnc(-c4cnn(S(=O)(=O)C5CC5)c4)n3)ncc2C#Cc2cnn(CC(F)F)c2)CC1 [Example 301] , assay on EGFR Del19/T790M/C797S (Homo sapiens, UniProt P00533, C797S/DEL746-750/T790M), is -0.15

log10(IC50) on EGFR Del19/T790M/C797S (Homo sapiens, UniProt P00533, C797S/DEL746-750/T790M) for CN(C)CCCn1cc(C#Cc2cnc(Nc3ccnc(-c4cnn(S(=O)(=O)C5CC5)c4)n3)cc2N[C@H]2CC[C@@H](O)CC2)cn1 [Example 123] is -0.40

Measured log10(IC50) (EGFR Del19/T790M/C797S (Homo sapiens, UniProt P00533, C797S/DEL746-750/T790M)), entry CC(C)(O)[C@H]1CC[C@@H](Nc2cc(Nc3ccnc(-c4cnn(S(=O)(=O)C5CC5)c4)n3)ncc2C#Cc2cnn(CC(F)(F)F)c2)CC1 [Example 346] : 1.24

The measured log10(IC50) that CS(=O)(=O)N1CCC(C#Cc2cnc(Nc3ccnc(-c4cnn(S(=O)(=O)C5CC5)c4)n3)cc2NCC2CCC(CO)CC2)C1 (stereo not drawn) [Example 400] showed for EGFR Del19/T790M/C797S (Homo sapiens, UniProt P00533, C797S/DEL746-750/T790M) is 1.29
